Can you tell me Ki for the items I'm about to list?
- tested.on: CDK2/Cyclin E1 full length (Homo sapiens (Human), UniProt P24941)
- run.description: CDK2/Cyclin E1 full length mobility shift assay
Give bare numbers, in nM.

Answered examples (3):
In [3]: df
Out[3]:
                                   compound                                 tested_on  value
0  CC(CC(F)(F)F)NC(=O)O[C@@H]1CC[C@H](c2cc(NC(=O)Cc3ccno3)n[nH]2)C1 (single isomer, unassigned) [Example 86]  CDK2/Cyclin E1 full length (Homo sapiens (Human), UniProt P24941)   0.25
1  Cc1coc(CC(=O)Nc2cc([C@H]3CC[C@@H](OC(=O)N[C@H](C)CC(F)(F)F)C3)[nH]n2)n1  CDK2/Cyclin E1 full length (Homo sapiens (Human), UniProt P24941)   1.43
2  Cc1ncc(CC(=O)Nc2cc([C@H]3CC[C@@H](OC(=O)N4C[C@@](C)(O)[C@@H]4C)C3)[nH]n2)s1  CDK2/Cyclin E1 full length (Homo sapiens (Human), UniProt P24941)   1.17

Below: the item to evaluate.
Ki in this record for Cc1cc(CC(=O)Nc2cc([C@H]3CC[C@@H](OC(=O)NC(C)C)C3)[nH]n2)no1 : 1.68

Data credit: patent US11014911B2
